target: UniProt Q08464; test: Antagonist activity at Wnt3a-stimulated rat frizzled-2 expressed in African green monkey COS7 cells up to 10 uM incubated for 24 hrs by luciferase reporter gene assay; type: cell-based; details: dose microM <=10, time 24.0 hrs
Sequence (Q08464 29-570 limits assumed): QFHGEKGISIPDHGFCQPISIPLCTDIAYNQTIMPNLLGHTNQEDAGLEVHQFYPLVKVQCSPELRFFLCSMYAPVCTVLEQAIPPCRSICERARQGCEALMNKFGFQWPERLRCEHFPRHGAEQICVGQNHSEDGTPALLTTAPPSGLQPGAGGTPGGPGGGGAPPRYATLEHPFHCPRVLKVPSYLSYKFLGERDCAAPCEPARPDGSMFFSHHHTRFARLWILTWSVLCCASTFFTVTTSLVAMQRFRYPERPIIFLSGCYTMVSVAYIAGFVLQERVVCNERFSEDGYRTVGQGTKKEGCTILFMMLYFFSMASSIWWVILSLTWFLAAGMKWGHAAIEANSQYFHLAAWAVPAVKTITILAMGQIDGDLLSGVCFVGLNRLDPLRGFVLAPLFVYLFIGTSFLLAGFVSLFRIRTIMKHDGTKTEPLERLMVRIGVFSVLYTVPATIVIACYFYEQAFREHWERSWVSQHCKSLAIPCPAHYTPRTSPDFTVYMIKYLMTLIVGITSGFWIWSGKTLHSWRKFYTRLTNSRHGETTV
The source made the active and inactive calls. The calls are words filed in the database; no cut-off is given here. Where a SMILES comes first, the peptide text is derived from it.
experimentalReadout: inhibition

Request: Please report the recorded inhibition for CC(=O)N[C@@H](CS)C(=O)N[C@@H](CC(N)=O)C(=O)N[C@@H](CCCCN)C(=O)N[C@H](C(=O)N[C@@H](CO)C(=O)N[C@@H](CCC(=O)O)C(=O)NCC(=O)N[C@@H](C)C(=O)N[C@@H](CC(=O)O)C(=O)NCC(=O)N[C@@H](CS)C(=O)N[C@@H](CCC(=O)O)C(=O)N[C@@H](CC(C)C)C(N)=O)[C@@H](C)O (Ac-CNKTSEGADGCEL-NH2) .
Result: inactive

Request: Look up inhibition for this compound: CSCC[C@H](NC(=O)CNC(=O)[C@H](CCC(=O)O)NC(=O)[C@H](CO)NC(=O)[C@@H](NC(=O)[C@H](CCCCN)NC(=O)[C@H](CC(N)=O)NC(=O)[C@H](CS)NC(C)=O)[C@@H](C)O)C(=O)N[C@@H](CC(=O)O)C(=O)NCC(=O)N[C@@H](CS)C(=O)N[C@@H](C)C(=O)N[C@@H](CC(C)C)C(N)=O (Ac-CNKTSEGMDGCAL-NH2)
Result: inactive

Request: Field request: inhibition | item: CSCC[C@H](NC(=O)CNC(=O)[C@H](CCC(=O)O)NC(=O)[C@H](CO)NC(=O)[C@@H](NC(=O)[C@H](CCCCN)NC(=O)[C@H](CC(N)=O)NC(=O)[C@H](CS)NC(C)=O)[C@@H](C)O)C(=O)N[C@@H](CC(=O)O)C(=O)NCC(=O)N[C@@H](CS)C(=O)N[C@@H](CCC(=O)O)C(=O)N[C@@H](C)C(N)=O (Ac-CNKTSEGMDGCEA-NH2)
Result: inactive

====

biological target: Frizzled-2 (Rattus norvegicus); assay: Antagonist activity at Wnt3a-stimulated rat frizzled-2 expressed in […] cells up to 10 uM incubated for 24 hrs by luciferase reporter gene assay; assay type: cell-based; conditions: dose microM <=10, time 24.0 hrs
Calls of active or inactive are those of the source. The calls are words filed in the database; no cut-off is given here. Where a SMILES comes first, the peptide text is derived from it.
experimentalReadout: inhibition

Request: inhibition for CSCC[C@H](NC(=O)CNC(=O)[C@H](CCC(=O)O)NC(=O)[C@H](CO)NC(=O)[C@H](C)NC(=O)[C@H](CCCCN)NC(=O)[C@H](CC(N)=O)NC(=O)[C@H](CS)NC(C)=O)C(=O)N[C@@H](CC(=O)O)C(=O)NCC(=O)N[C@@H](CS)C(=O)N[C@@H](CCC(=O)O)C(=O)N[C@@H](CC(C)C)C(N)=O (Ac-CNKASEGMDGCEL-NH2) ?
Result: inactive

Request: # query: inhibition of entry CSCC[C@H](NC(=O)CNC(=O)[C@H](CCC(=O)O)NC(=O)[C@H](C)NC(=O)[C@@H](NC(=O)[C@H](CCCCN)NC(=O)[C@H](CC(N)=O)NC(=O)[C@H](CS)NC(C)=O)[C@@H](C)O)C(=O)N[C@@H](CC(=O)O)C(=O)NCC(=O)N[C@@H](CS)C(=O)N[C@@H](CCC(=O)O)C(=O)N[C@@H](CC(C)C)C(N)=O (Ac-CNKTAEGMDGCEL-NH2)
Result: inactive
